The reported measurements were obtained from the supplement of paper PMC8728848.

Measurement target: Fuc(a1-2)[Gal(a1-3)]Gal(b1-4)[Fuc(a1-3)]GlcNAc
Procedure details: glycan array binding signal (z-score within array); higher = stronger binding
Condition: glycan notation: IUPAC condensed, linker removed
The sample as a whole holds a higher share of the strongest signals than the screen did.
Assay metric: glycan array binding signal (z-score)

{"Binder": "ABA (Agaricus bisporus), Q00022 (protein) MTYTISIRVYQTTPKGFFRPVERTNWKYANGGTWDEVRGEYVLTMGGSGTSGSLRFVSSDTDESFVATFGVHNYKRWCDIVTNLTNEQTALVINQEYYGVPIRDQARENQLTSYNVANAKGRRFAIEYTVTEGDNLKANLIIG", "glycan array binding signal (z-score)": -0.155}

Now for a further binder.
Entry under review: CpGal16 (Clavelina picta) (protein) MAKMITNYVGKRIECIMVATDMMSTVFSLASATGDLPFYINFRQRENSIVMNTRVHGKWQYEKSQSSGGMNFYEPFRLVVEVRPSVFKVTVSTMGEEDGITFNLQYSQITIKPDEIVAMHLGYCNLRSELLVTDL . Reported glycan array binding signal (z-score)?
-0.434
